IC50 values for 5-hydroxytryptamine receptor 1D (Homo sapiens), compiled from several publications.

Request - read-out IC50 | tested on 5-hydroxytryptamine receptor 1D (Homo sapiens) | molecule Cc1csc2c1-n1cccc1/C2=N/OCCN(C)C
479 nM

Any idea what IC50 came out for Cc1ccc2c(c1)N1OC(CN(C)C)CC1c1ccccc1C2 (stereo unspecified) on 5-hydroxytryptamine receptor 1D (Homo sapiens)?
> 1000 nM

Look up IC50 with 5-hydroxytryptamine receptor 1D (Homo sapiens) for this molecule: Nc1nc(Cl)ncc1-c1c[nH]c2cccc(O)c12
Sequence (P28221 whole entry): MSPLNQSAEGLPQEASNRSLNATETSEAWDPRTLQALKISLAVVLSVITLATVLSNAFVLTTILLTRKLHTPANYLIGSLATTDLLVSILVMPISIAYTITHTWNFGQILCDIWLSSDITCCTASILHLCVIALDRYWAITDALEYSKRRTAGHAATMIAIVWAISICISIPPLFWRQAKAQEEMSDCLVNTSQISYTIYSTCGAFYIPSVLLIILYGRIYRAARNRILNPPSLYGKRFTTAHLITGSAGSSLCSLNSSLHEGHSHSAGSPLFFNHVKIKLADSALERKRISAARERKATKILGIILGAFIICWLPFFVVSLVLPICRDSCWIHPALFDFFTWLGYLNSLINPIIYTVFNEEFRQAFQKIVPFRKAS
> 10000 nM

Entry CNCC1CC2c3ccccc3Cc3ccccc3N2O1 (stereo unspecified) , system 5-hydroxytryptamine receptor 1D (Homo sapiens): what IC50 was measured?
> 1000 nM

Field: IC50 (5-hydroxytryptamine receptor 1D (Homo sapiens)). Entry: CN(C)CC1CC2c3ccccc3Cc3ccccc3N2O1 (stereo in doubt; 2a)
661 nM

Missing value: IC50, 5-hydroxytryptamine receptor 1D (Homo sapiens), entry CN1CCN(C[C@H](c2cccc(OC(F)(F)F)c2)C2(O)CCCCC2)CC1.Cl.Cl . Fill in?
> 10000 nM
